tested-target: T1, natriuretic peptide receptor-B (human)
T1 chain: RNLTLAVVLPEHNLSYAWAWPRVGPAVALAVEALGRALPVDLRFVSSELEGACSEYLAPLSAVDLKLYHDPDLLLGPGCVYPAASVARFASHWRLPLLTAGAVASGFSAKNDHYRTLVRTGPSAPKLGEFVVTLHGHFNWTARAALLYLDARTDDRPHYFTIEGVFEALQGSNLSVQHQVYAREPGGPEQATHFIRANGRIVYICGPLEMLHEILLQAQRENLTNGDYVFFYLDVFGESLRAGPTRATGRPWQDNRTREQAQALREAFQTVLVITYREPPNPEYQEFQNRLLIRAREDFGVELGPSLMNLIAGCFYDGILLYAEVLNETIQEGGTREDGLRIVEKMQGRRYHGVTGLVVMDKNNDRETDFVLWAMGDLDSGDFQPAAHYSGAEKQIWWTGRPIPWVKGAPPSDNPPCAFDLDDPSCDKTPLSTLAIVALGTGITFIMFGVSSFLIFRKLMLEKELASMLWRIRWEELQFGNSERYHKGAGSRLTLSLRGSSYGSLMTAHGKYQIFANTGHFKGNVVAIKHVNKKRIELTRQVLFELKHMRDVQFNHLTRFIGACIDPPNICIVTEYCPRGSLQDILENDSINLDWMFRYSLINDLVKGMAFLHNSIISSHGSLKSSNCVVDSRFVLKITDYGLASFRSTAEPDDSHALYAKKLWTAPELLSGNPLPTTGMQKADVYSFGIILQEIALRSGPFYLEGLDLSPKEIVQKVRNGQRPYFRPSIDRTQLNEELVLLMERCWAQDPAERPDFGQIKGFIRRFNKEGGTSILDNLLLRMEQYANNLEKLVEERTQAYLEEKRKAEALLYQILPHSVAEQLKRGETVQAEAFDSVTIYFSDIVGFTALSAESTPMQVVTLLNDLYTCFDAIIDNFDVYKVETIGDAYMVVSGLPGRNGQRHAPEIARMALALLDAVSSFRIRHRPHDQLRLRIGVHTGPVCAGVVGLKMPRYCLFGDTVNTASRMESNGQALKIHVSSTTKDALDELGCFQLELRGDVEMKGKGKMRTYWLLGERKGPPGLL
assay-comment: cell-based or functional assay
Numbered stars: 1 amine (or outer) side, 2 acyl side, 3 side chain; on linkers, the order of the positions; unused ones are H or OH. Square brackets hold non-standard residues; d marks the D form. Ends that are not written are not given here. * marks the point of attachment. 5118 = (1R,2S)-ethyl 2-aminocyclohexanecarboxylate, CCOC(=O)[C@@H]1CCCC[C@@H]1N*; Pro(trans-4-NH2) = O=C([C@@H]1C[C@@H](N[*:3])CN1[*:1])[*:2]; Pro(trans-4-guanidino) = N=C(N)N[C@H]1CN[C@H](C(=O)O)C1; Sni = (S)-nipecotic acid, O=C([C@H]1CCCN([*:1])C1)[*:2]; Pentanoyl(5-Ph) = O=C(CCCCc1ccccc1)*; Pro(3S-OH) = O=C(O)[C@H]1NCC[C@@H]1O; NMeR = CN[C@@H](CCCNC(=N)N)C(=O)O; dDap(Me2) = CN(C)C[C@@H](N)C(=O)O; Hyp = O=C(O)[C@@H]1C[C@@H](O)CN1; NMeF = CN[C@@H](Cc1ccccc1)C(=O)O; NMeL = CN[C@@H](CC(C)C)C(=O)O; d(hSer) = N[C@H](CCO)C(=O)O; orn(Me2) = not defined here; Octanoyl = CCCCCCCC(=O)*; 933 = not defined here; Che = not defined here; ala = not defined here; leu = not defined here; Occ = octanoic acid
parameter: EC50 group, cGMP in GTM-3 cells

Field EC50 group, cGMP in GTM-3 cells (entry Octanoyl-[d(hSer)]FLL[Hyp][NMeL]DRI-NH2 (not fully specified (some residues); printed as Occ-hse-Phe-leu-Leu-Hyp-Nml-Asp-Arg-Ile-NH2) [JAL-1801] ) reads ≤ 5 µM

Field EC50 group, cGMP in GTM-3 cells (entry 933-AFGLKLDRI-NH2 (not fully specified (some residues); printed as 933-ala-Phe-Gly-Leu-Lys-Leu-Asp-Arg-Ile-NH2; reading uncertain) [JAL-0786] ) reads ≤ 15 µM

Field EC50 group, cGMP in GTM-3 cells (entry [Occ][Sni]FLL[Hyp][NMeL]DP[Che] (not fully specified (residue 4); printed as Occ-Sni-Phe-leu-Leu-Hyp-Nml-Asp-Pro-Che; reading uncertain) [JAL-1512_02] ) reads ≤ 1 µM

Field EC50 group, cGMP in GTM-3 cells (entry [Occ][Sni]F[dL][NMeL][Hyp][NMeL]DRI-NH2 [JAL-1572] ) reads ≤ 15 µM

Field EC50 group, cGMP in GTM-3 cells (entry Octanoyl-[dA][NMeF][dL]L[Hyp]LDRI-NH2 [JAL-1052] ) reads ≤ 1 µM

Field EC50 group, cGMP in GTM-3 cells (entry Octanoyl-AF[leu]L[Hyp][NMeL]D[Pro(3S-OH)]I-NH2 (not fully specified (some residues); printed as Occ-ala-Phe-leu-Leu-Hyp-Nml-Asp-H3p-Ile-NH2; reading uncertain) [JAL-1477] ) reads ≤ 5 µM

Field EC50 group, cGMP in GTM-3 cells (entry Octanoyl-[dA]F[dR]L[Hyp]LDRI-NH2 [JAL-1156_02] ) reads ≤ 5 µM

Field EC50 group, cGMP in GTM-3 cells (entry Octanoyl-[dA]FGL[Pro(trans-4-guanidino)]LDRI-NH2 [JAL-1270] ) reads ≤ 5 µM

Field EC50 group, cGMP in GTM-3 cells (entry {Pentanoyl(5-Ph)}-[Sni]F[dL]L[Hyp][NMeL]DRI-NH2 [JAL-1606] ) reads ≤ 1 µM

Field EC50 group, cGMP in GTM-3 cells (entry [Occ][Sni]F[dDap(Me2)]L[Hyp][NMeL]D[NMeR]I-NH2 [JAL-1576] ) reads ≤ 1 µM

Field EC50 group, cGMP in GTM-3 cells (entry Octanoyl-[ala][ala]FGLKLDR[5118] (reading uncertain; also: printed as Occ-ala-ala-Phe-Gly-Leu-Lys-Leu-Asp-Arg-5118) [JAL-0831] ) reads ≤ 15 µM

Field EC50 group, cGMP in GTM-3 cells (entry Octanoyl-[Sni]F[dDap(Me2)]L[Pro(trans-4-NH2)][NMeL]VRI-NH2 [JAL-1403] ) reads ≤ 1 µM

Field EC50 group, cGMP in GTM-3 cells (entry [Occ][Sni]F[orn(Me2)]L[Hyp][NMeL]DRI-OH (reading uncertain; also: printed as Occ-Sni-Phe-orn(Me2)-Leu-Hyp-Nml-Asp-Arg-Ile-OH) [JAL-1931] ) reads ≤ 5 µM
